target: Lysine-specific demethylase 4C (Homo sapiens) (UniProt Q9H3R0)
Sequence (Q9H3R0 1-420 limits assumed): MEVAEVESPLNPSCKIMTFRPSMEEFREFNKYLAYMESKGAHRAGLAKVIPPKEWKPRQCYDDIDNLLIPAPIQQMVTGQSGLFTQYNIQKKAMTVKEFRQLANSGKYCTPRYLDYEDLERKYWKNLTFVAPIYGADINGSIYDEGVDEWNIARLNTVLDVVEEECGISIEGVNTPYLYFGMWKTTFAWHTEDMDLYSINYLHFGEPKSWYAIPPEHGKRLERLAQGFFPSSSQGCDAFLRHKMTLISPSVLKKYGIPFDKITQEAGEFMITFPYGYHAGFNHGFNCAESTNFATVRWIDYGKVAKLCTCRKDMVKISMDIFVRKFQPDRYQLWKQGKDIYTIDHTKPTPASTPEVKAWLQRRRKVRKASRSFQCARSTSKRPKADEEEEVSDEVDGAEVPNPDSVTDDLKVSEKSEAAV
assay.method.text: GASC-1 (JMJD2C) histone demethylase inhibitors, dose response, biochemical, DELFIA europium, cherry-picked samples (AID 488835);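 also: signal is the H3K9me2 demethylation product detected by a dimethyl-specific antibody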
measurement.parameters: GST-JMJD2C(1-420), H3K9me3 demethylation; series mostly up to 6 µM
Among all 1,400 compounds or so, about 140 (10%) were called active. Only a sample is shown. Results with a measured potency or affinity are listed apart.
measured.metric: outcome

- Cc1ccc(C2=[N+]([O-])C(C)(C)CC2)cc1: inactive
- CCc1ccc(C(=O)CSc2nc3ccccc3c(=O)[nH]2)cc1: inactive
- Cc1cc(N2C(=O)C(=O)/C(=C(/O)c3ccc(F)cc3)C2c2cccc(Br)c2)no1 (stereo unspecified): inactive
- O=C(Cn1cncn1)NCc1cc(F)ccc1F: inactive
- Cn1c(=O)[nH]c(=O)c2c1nc(SCC(=O)O)n2CCc1ccccc1: inactive
- Cc1ccc(NC(=O)CSc2ncc(S(=O)(=O)c3ccccc3)c(=O)[nH]2)cc1C: inactive
